Origin of measurements: ChEMBL document CHEMBL4411309

Test system: MV4-11
MEASUREMENT_DESCRIPTION: Antiproliferative activity against human MV4-11 cells supplemented with fresh medium containing compound every 4 days measured on day 12 by Celltiter-glo luminescent cell viability assay
Format: functional
RECORDED_ENDPOINT: GI50 (nM)
Please reply with the bare figure in nM and do not write the unit itself.

In: Any idea what its GI50 is? The compound is Cc1c(C(=O)NCC(O)CN2CCc3ccccc3C2)sc2c1CN(C(=O)c1ccc(N(C)C)cc1)CC2 (centres undefined)
Out: 101

In: // repeat for O=C(NCC(O)CN1CCc2ccccc2C1)c1cc2c(s1)CCN(S(=O)(=O)c1ccccc1)C2 (centres undefined) and report
Out: 209

In: Now the same for `O=C(NC[C@H](O)CN1CCc2ccccc2C1)c1cc(NC2COC2)ncn1`
Out: 106

In: Entry CN(C)c1ccc(C(=O)N2Cc3ccc(C(=O)NCC(O)CN4CCc5ccccc5C4)cc3C2)cc1 (centres undefined) please
Out: 92

In: CC(C)(C)c1ccc(C(=O)N2CCc3sc(C(=O)NCC(O)CN4CCc5ccccc5C4)cc3C2)cc1 (centres undefined) ?
Out: 186

In: // same read-out, input: O=C(NCC(O)CN1CCc2ccccc2C1)c1cc2c(s1)CCN(C(=O)c1ccc(Br)cc1)C2 (centres undefined)
Out: 66

In: Similarly, O=C(NCC(O)CN1CCc2ccccc2C1)c1cc2c(s1)CCN(C(=O)c1cccc(F)c1)C2 (centres undefined) ?
Out: 166

In: // same read-out, input: O=C(NCC(O)CN1CCc2ccccc2C1)c1cc2c(s1)CCN(C(=O)c1ccc(Cl)cc1)C2 (centres undefined)
Out: 162

In: What do you get for O=C(NCC(O)CN1CCc2ccccc2C1)c1cc2c(s1)CCN(C(=O)c1ccc(F)cc1)C2 (centres undefined) ?
Out: 126
